Measured values drawn from PubChem BioAssay (NCI) for this set.

Test system: SK-MEL-28 melanoma
experiment: NCI tumour cell line growth inhibition, 48 h
Quick list: TGI per entry.

compound	system-under-test	value-relation-sign	TGI / µM
COC(=O)c1c(C)nc(C)c2c1C(=O)C(Br)=C(NCc1ccccc1)C2=O	SK-MEL-28 melanoma	=	17.5
O=[N+]([O-])c1ccccc1N=Nc1c(O)[nH]c2c(Cl)cccc12	SK-MEL-28 melanoma	>	72.4
Cc1nc2ccc(NCCN(C)C)c3c(=O)c4ccccc4n1c23	SK-MEL-28 melanoma	=	21
O=C(Nc1ccn(C2CC(O)C(COC(c3ccccc3)(c3ccccc3)c3ccccc3)O2)c(=O)n1)c1ccccc1 (stereo unspecified)	SK-MEL-28 melanoma	=	12.1
Nc1nc(Cl)c2ncn(CCCC(c3ccccc3)P(=O)(O)O)c2n1 (stereo unspecified)	SK-MEL-28 melanoma	>	100
CNC(=S)N/N=C/C(C)=N/NC(=S)NC	SK-MEL-28 melanoma	>	100
